Value source: patent US9073855B2

Binding selectivity ratio (Bcl-XL Ki/Bcl-2 Ki) by entry:
# ASSAYED_SYSTEM: GST-Bcl-2 (Homo sapiens)
# ASSAY_COMMENT: TR-FRET binding assay, GST-Bcl-2 with F-Bak peptide probe
# CONDITION_SET: ratio of TR-FRET Ki values, Bcl-XL over Bcl-2
REPORTED_METRIC: Binding selectivity ratio (Bcl-XL Ki/Bcl-2 Ki)

COCCOCCN1CC[C@@H](Nc2ccc(S(=O)(=O)NC(=O)c3ccc(N4CCN(CC5=C(c6ccc(Cl)cc6)CC(C)(C)CC5)CC4)cc3Oc3cccc4[nH]cnc34)cc2[N+](=O)[O-])C1 140.7
CN(C)CC(=O)N1CCO[C@H](COc2ncc(S(=O)(=O)NC(=O)c3ccc(N4CCN(CC5=C(c6ccc(Cl)cc6)CC(C)(C)CC5)CC4)cc3Oc3cccc4[nH]cnc34)cc2Cl)C1 756.6
CC1(C)CCC(CN2CCN(c3ccc(C(=O)NS(=O)(=O)c4cnc(OCCN5CCOCC5)c(C#N)c4)c(Oc4cccc5[nH]ccc45)c3)CC2)=C(c2ccc(Cl)cc2)C1 320.2

----------
# ASSAYED_SYSTEM: GST-Bcl-2 (Homo sapiens, UniProt P10415)
# Sequence (P10415 whole entry): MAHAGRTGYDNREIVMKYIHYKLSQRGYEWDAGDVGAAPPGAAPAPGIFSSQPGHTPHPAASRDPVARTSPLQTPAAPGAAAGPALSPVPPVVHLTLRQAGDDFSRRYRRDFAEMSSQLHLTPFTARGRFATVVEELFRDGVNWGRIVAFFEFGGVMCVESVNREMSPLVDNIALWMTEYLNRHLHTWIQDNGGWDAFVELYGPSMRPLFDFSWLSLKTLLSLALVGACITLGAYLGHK
# ASSAY_COMMENT: TR-FRET binding assay, GST-Bcl-2 with F-Bak peptide probe
# CONDITION_SET: TR-FRET Binding Affinity, GST-Bcl-2, F-Bak peptide probe
pKi: −log10 of the molar value.
pKi by entry:
REPORTED_METRIC: pKi

CC1(C)CCC(CN2CCN(c3ccc(C(=O)NS(=O)(=O)c4cnc(OCC5CCOCC5)c(C#N)c4)c(Oc4cccc5[nH]ccc45)c3)CC2)=C(c2ccc(Cl)cc2)C1 9.62
O=C(NS(=O)(=O)c1ccc(NCCc2ccncc2)c([N+](=O)[O-])c1)c1ccc(N2CCN(Cc3ccccc3-c3ccc(Cl)cc3)CC2)cc1Oc1ccccc1 9.01
CC1(C)CCC(CN2CCN(c3ccc(C(=O)NS(=O)(=O)c4ccc(NCC5CCOCC5)c(C(F)(F)F)c4)c(Oc4ccc5[nH]ccc5c4)c3)CC2)=C(c2ccc(Cl)cc2)C1 7.53
CC1(C)CCC(CN2CCN(c3ccc(C(=O)NS(=O)(=O)c4ccc(NC5CCN(CC(F)(F)F)CC5)c([N+](=O)[O-])c4)c(Oc4cccc5[nH]ccc45)c3)CC2)=C(c2ccc(Cl)cc2)C1 8.63
O=C(NS(=O)(=O)c1ccc(NCC2CCOCC2)c([N+](=O)[O-])c1)c1ccc(N2CCN(Cc3ccccc3-c3ccc(Cl)cc3)CC2)cc1Oc1ccccc1 8.17

----------
pKi by entry:
# ASSAYED_SYSTEM: GST-Bcl-XL (Homo sapiens, UniProt Q07817)
# Sequence (Q07817 whole entry): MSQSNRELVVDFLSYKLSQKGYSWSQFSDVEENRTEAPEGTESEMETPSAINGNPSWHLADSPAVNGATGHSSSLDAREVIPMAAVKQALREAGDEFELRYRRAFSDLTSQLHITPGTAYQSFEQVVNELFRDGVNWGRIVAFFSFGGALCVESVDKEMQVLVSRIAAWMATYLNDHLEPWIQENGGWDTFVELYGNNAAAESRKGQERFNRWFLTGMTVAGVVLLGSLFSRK
# ASSAY_COMMENT: TR-FRET binding assay, GST-Bcl-XL with F-Bak peptide probe
# CONDITION_SET: TR-FRET Binding Affinity
pKi: −log10 of the molar value.

COMPOUND	pKi
O=C(NS(=O)(=O)c1ccc(NCC2CCOCC2)c([N+](=O)[O-])c1)c1ccc(N2CCN(CC3=C(c4ccc(Cl)cc4)CCC(F)(F)C3)CC2)cc1Oc1cccc2[nH]ncc12	7.65
CC1(C)CCC(CN2CCN(c3ccc(C(=O)NS(=O)(=O)c4cnc(OCC5COCCO5)c(Cl)c4)c(Oc4cccc5[nH]ncc45)c3)CC2)=C(c2ccc(Cl)cc2)C1 (stereo not drawn)	7.63
CC[C@]1(O)CC[C@@H](COc2ncc(S(=O)(=O)NC(=O)c3ccc(N4CCN(CC5=C(c6ccc(Cl)cc6)CC(C)(C)CC5)CC4)cc3Oc3cccc4[nH]ncc34)cc2Cl)CC1	6.64

----------
# ASSAYED_SYSTEM: GST-Bcl-2 (Homo sapiens)
# ASSAY_COMMENT: TR-FRET binding assay, GST-Bcl-2 with F-Bak peptide probe
# CONDITION_SET: TR-FRET Binding Affinity, GST-Bcl-2, F-Bak peptide probe
Output y for records whose Ki is lower than 300 pM, n for records at or above 300 pM.

CC1(C)CCC(CN2CCN(c3ccc(C(=O)NS(=O)(=O)c4ccc(CCC5OCCO5)c([N+](=O)[O-])c4)c(Oc4ccc5[nH]ccc5c4)c3)CC2)=C(c2ccc(Cl)cc2)C1 n
CN(C)CCOc1ccc(-c2ccc(Cl)cc2)c(CN2CCN(c3ccc(C(=O)NS(=O)(=O)c4ccc(NCC5CCOCC5)c([N+](=O)[O-])c4)c(Oc4ccc5[nH]ccc5c4)c3)CC2)c1 y
CC1(C)CCC(CN2CCN(c3ccc(C(=O)NS(=O)(=O)c4cnc(OCC5CCOCC5)c(Br)c4)c(Oc4ccc5[nH]ccc5c4)c3)CC2)=C(c2ccc(Cl)cc2)C1 y
CC1(C)CCC(CN2CCN(c3ccc(C(=O)NS(=O)(=O)c4ccc(NC5CCN(S(C)(=O)=O)CC5)c([N+](=O)[O-])c4)c(Oc4cccc5[nH]ccc45)c3)CC2)=C(c2ccc(Cl)cc2)C1 n
O=C(NS(=O)(=O)c1ccc(NCCCN2CCCC2)c([N+](=O)[O-])c1)c1ccc(N2CCN(CC3=C(c4ccc(Cl)cc4)CCC3)CC2)cc1Oc1cccc2[nH]ccc12 n

----------
pKi by entry:
# ASSAYED_SYSTEM: GST-Bcl-2 (Homo sapiens)
# ASSAY_COMMENT: TR-FRET binding assay, GST-Bcl-2 with F-Bak peptide probe
# CONDITION_SET: TR-FRET Binding Affinity, GST-Bcl-2, F-Bak peptide probe
pKi: −log10 of the molar value.
REPORTED_METRIC: pKi

MOLECULE	REPORTED_METRIC	NUMERIC_READOUT
CC1(C)CCC(CN2CCN(c3ccc(C(=O)NS(=O)(=O)c4cnc(OC[C@H]5CC[C@H](O)CC5)c(Cl)c4)c(Oc4cccc5[nH]ncc45)c3)CC2)=C(c2ccc(Cl)cc2)C1 [Example 421]	pKi	10.59
CN(C)C1(CNc2ccc(S(=O)(=O)NC(=O)c3ccc(N4CCN(CC5=C(c6ccc(Cl)cc6)CC(C)(C)CC5)CC4)cc3Oc3ccc4[nH]ccc4c3)cc2[N+](=O)[O-])CCOCC1 [Example 207]	pKi	9.66
CN1CCC(CNc2ccc(S(=O)(=O)NC(=O)c3ccc(N4CCN(Cc5ccccc5-c5ccc(Cl)cc5)CC4)cc3Oc3ccccc3)cc2[N+](=O)[O-])CC1 [Example 88]	pKi	10.16
CN(C)CCOc1ccc(-c2ccc(Cl)cc2)c(CN2CCN(c3ccc(C(=O)NS(=O)(=O)c4ccc(NCC5CCOCC5)c([N+](=O)[O-])c4)c(Oc4cccc5[nH]ccc45)c3)CC2)c1 [Example 125]	pKi	11.52
O=C(NS(=O)(=O)c1ccc(NCC2CCOCC2)c([N+](=O)[O-])c1)c1ccc(N2CCN(CC3=C(c4ccc(Cl)cc4)CCN(CCCO)C3)CC2)cc1Oc1cccc2[nH]ccc12 [Example 355]	pKi	9.92
CC1(C)CCC(CN2CCN(c3ccc(C(=O)NS(=O)(=O)c4ccc(N[C@@H]5CCN(CC(F)F)C5)c([N+](=O)[O-])c4)c(Oc4cccc5[nH]cnc45)c3)CC2)=C(c2ccc(Cl)cc2)C1 [Example 407]	pKi	10.82
CNc1ccc(S(=O)(=O)NC(=O)c2ccc(N3CCN(CC4=C(c5ccc(Cl)cc5)CC(C)(C)CC4)CC3)cc2Oc2ccc3[nH]ccc3c2)cc1S(=O)(=O)C(F)(F)F [Example 328]	pKi	8.73
CN(C)CCCNc1ccc(S(=O)(=O)NC(=O)c2ccc(N3CCN(Cc4ccccc4-c4ccc(Cl)cc4)CC3)cc2Oc2ccc3ccccc3c2)cc1[N+](=O)[O-] [Example 166]	pKi	9.34
CN(C)CCOc1cccc(-c2ccc(Cl)cc2)c1CN1CCN(c2ccc(C(=O)NS(=O)(=O)c3ccc(NCC4CCOCC4)c([N+](=O)[O-])c3)c(Oc3ccccc3)c2)CC1 [Example 122]	pKi	10.24
CC1(C)CCC(CN2CCN(c3ccc(C(=O)NS(=O)(=O)c4ccc(OCC5CCOC(C)(C)C5)c([N+](=O)[O-])c4)c(Oc4ccc5[nH]ccc5c4)c3)CC2)=C(c2ccc(Cl)cc2)C1 (centres unmarked) [Example 384]	pKi	10.12
O=C(NS(=O)(=O)c1ccc(NCCCN2CCOCC2)c([N+](=O)[O-])c1)c1ccc(N2CCN(Cc3ccccc3-c3ccc(Cl)cc3)CC2)cc1Oc1ccc2ccccc2c1 [Example 36]	pKi	9.10
CC1(C)CCC(CN2CCN(c3ccc(C(=O)NS(=O)(=O)c4ccc(NCC(F)(F)F)c([N+](=O)[O-])c4)c(Oc4ccc5[nH]ccc5c4)c3)CC2)=C(c2ccc(Cl)cc2)C1 [Example 344]	pKi	9.55
CN1CCN(Nc2ccc(S(=O)(=O)NC(=O)c3ccc(N4CCN(CC5=C(c6ccc(Cl)cc6)CC(C)(C)CC5)CC4)cc3Oc3cccc4[nH]ccc34)cc2[N+](=O)[O-])CC1 [Example 190]	pKi	9.29
CC1(C)CCC(CN2CCN(c3ccc(C(=O)NS(=O)(=O)c4ccc(NCCCN5CCCC5=O)c([N+](=O)[O-])c4)c(Oc4ccc5[nH]ccc5c4)c3)CC2)=C(c2ccc(Cl)cc2)C1 [Example 374]	pKi	8.64
CC1(C)CCC(CN2CCN(c3ccc(C(=O)NS(=O)(=O)c4ccc(OC[C@@H]5COCCO5)c([N+](=O)[O-])c4)c(Oc4ccc5[nH]ccc5c4)c3)CC2)=C(c2ccc(Cl)cc2)C1 [Example 347]	pKi	9.61
CN1CCN(CCCNc2ccc(S(=O)(=O)NC(=O)c3ccc(N4CCN(Cc5ccccc5-c5ccc(Cl)cc5)CC4)cc3Oc3ccccc3)cc2[N+](=O)[O-])CC1 [Example 86]	pKi	9.67
O=C(NS(=O)(=O)c1ccc(NCC2CCOCC2)c([N+](=O)[O-])c1)c1ccc(N2CCN(CC3=C(c4ccc(Cl)cc4)CCC(N4CCOCC4)C3)CC2)cc1Oc1ccc2[nH]ccc2c1 (centres unmarked) [Example 249]	pKi	10.05
CN(C)CCCNc1ccc(S(=O)(=O)NC(=O)c2ccc(N3CCN(CC4=C(c5ccc(Cl)cc5)CCC(C)(C)C4)CC3)cc2Oc2ccc3[nH]ccc3c2)cc1[N+](=O)[O-] [Example 51]	pKi	9.60
COCCNc1ccc(S(=O)(=O)NC(=O)c2ccc(N3CCN(CC4=C(c5ccc(Cl)cc5)CC(C)(C)CC4)CC3)cc2Oc2cccc3[nH]ccc23)cc1S(=O)(=O)C(F)(F)F [Example 309]	pKi	8.35
O=C(NS(=O)(=O)c1ccc(NCC2CCOCC2)c([N+](=O)[O-])c1)c1ccc(N2CCN(Cc3ccccc3-c3ccc(Cl)cc3)CC2)cc1Oc1cccc2ccccc12 [Example 34]	pKi	8.70
